system: PC-3 prostate adenocarcinoma; assay: Cell proliferation assay (14C-thymidine incorporation), PC-3; format: cell-based; details: Homo sapiens, read-out: Inhibition of cell proliferation IC50
pIC50: −log10 of the molar value.
Rule: pIC50 of 5 or more gives fulfilled; anything lower gives not fulfilled.

>>> df
                                   compound                 target_entity  classification
0  CN(C)CCNc1cncc(-c2cncc(Nc3cccc(Cl)c3)n2)c1 [Cmd 33]  PC-3 prostate adenocarcinoma   not fulfilled
1  Clc1cccc(Nc2cncc(-c3cncc(NCCCn4cccn4)c3)n2)c1 [Cmd 75]  PC-3 prostate adenocarcinoma       fulfilled
2  Clc1cccc(Nc2cncc(-c3cncc(NCCCc4cccnc4)c3)n2)c1 [Cmd 72]  PC-3 prostate adenocarcinoma       fulfilled
3  Clc1cccc(Nc2cncc(-c3cncc(NCCCc4ccncc4)c3)n2)c1 [Cmd 71]  PC-3 prostate adenocarcinoma       fulfilled
4  CN(C)CCCNc1cncc(-c2cncc(Nc3cccc(Cl)c3)n2)c1 [Cmd 35]  PC-3 prostate adenocarcinoma   not fulfilled
5  OCCCCNc1cncc(-c2cncc(Nc3cccc(Cl)c3)n2)c1 [Cmd 32]  PC-3 prostate adenocarcinoma   not fulfilled

* * *

Form field: log10(IC50) (one value per entry).
tested on: MDA-MB-231; assay: Cell proliferation assay (14C-thymidine incorporation), MDA-MB-231; assay type: cell-based; details: Homo sapiens, read-out: Inhibition of cell proliferation IC50
Endpoint: log10(IC50) (log10 of the value in µM)

>>> print(df.to_string())
                                   compound  target_entity     endpoint  observed_value
0  CN(C)CCCNc1cncc(-c2cncc(Nc3cccc(Cl)c3)n2)c1 [Cmd 35]     MDA-MB-231  log10(IC50)            1.99
1  OCCCCNc1cncc(-c2cncc(Nc3cccc(Cl)c3)n2)c1 [Cmd 32]     MDA-MB-231  log10(IC50)            1.44
2  Clc1cccc(Nc2cncc(-c3cncc(NCCCc4ccncc4)c3)n2)c1 [Cmd 71]     MDA-MB-231  log10(IC50)            0.27
3  OCCCNc1cncc(-c2cncc(Nc3cccc(Cl)c3)n2)c1 [Cmd 4]     MDA-MB-231  log10(IC50)            0.51
4  CN(C)CCNc1cncc(-c2cncc(Nc3cccc(Cl)c3)n2)c1 [Cmd 33]     MDA-MB-231  log10(IC50)            1.10
5  Clc1cccc(Nc2cncc(-c3cncc(NCCCc4cccnc4)c3)n2)c1 [Cmd 72]     MDA-MB-231  log10(IC50)            0.41

* * *

tested on: rat aortic ring; test: Rat aortic ring assay (vascular sprouting); format: cell-based; details: 192 h; rat aortic ring in fibrin gel, analyzed on day 8; read-out: Inhibition of Vascular Sprouting (IC50μM)
Form field: IC50 (one value per entry).
Endpoint: IC50 (µM)

                                item_smiles  operator_symbol  observed_value
0  OCCCCNc1cncc(-c2cncc(Nc3cccc(Cl)c3)n2)c1                =            0.83
1  CN(C)CCCNc1cncc(-c2cncc(Nc3cccc(Cl)c3)n2)c1                >               1
2   OCCCNc1cncc(-c2cncc(Nc3cccc(Cl)c3)n2)c1                =           0.099
3  CN(C)CCNc1cncc(-c2cncc(Nc3cccc(Cl)c3)n2)c1                >               1
